System: Plasmodium falciparum
Protocol Text: GSK_TCMDC: Inhibition of Plasmodium falciparum Dd2 in whole red blood cells, using parasite LDH activity as an index of growth. Test compounds present at 2uM
Assay type: functional
Would you kindly list Inhibition for each of these compounds?
Write the answer as a number in %, unit excluded.

Reported Plasmodium falciparum Inhibition for item CCn1c(-c2nonc2N)nc2c(-c3cccc(NC(=O)Nc4cccc(C#N)c4)c3)ncc(OCCCN)c21.O=C(O)C(F)(F)F was 80

The measured Inhibition that COc1cc(C(=O)N2CCOC(CCN3CCC4c5ccccc5CC43)(c3ccc(Cl)c(Cl)c3)C2)cc(OC)c1OC (stereo not drawn) showed for Plasmodium falciparum is 82

The reported Inhibition value, Plasmodium falciparum, for Cc1cccc2nc(-c3cccc(-c4cccc(NC(=O)C5CC(=O)Nc6ccccc65)c4)c3)[nH]c12 (stereo not drawn) reads 25

Summary line: Cl.N=C(N)c1ccc(NN=Cc2ccc(Oc3ccc(C(=N)N)cc3)cc2)cc1 , Plasmodium falciparum, reported Inhibition = 100

Value sought: Inhibition, system Plasmodium falciparum, item Nc1nc(N)c2c(Cc3ccc(Br)cc3)cccc2n1 . Result: 20

Summary line: Cc1cc(OCCCN2CCC(NS(=O)(=O)c3cc(Br)c(Cl)s3)CC2)c2ccccc2n1 , Plasmodium falciparum, reported Inhibition = 39

Lab entry: Plasmodium falciparum assay, compound O=[N+]([O-])c1ccc(Nc2nc(NCc3ccccc3)nc(N/N=C/c3ccccc3[N+](=O)[O-])n2)cc1 , Inhibition = 99

COc1ccc2nc3cc(Cl)ccc3c(NCCN3CCN(C)CC3)c2c1.Cl tested on Plasmodium falciparum gave Inhibition: 99

Assay Plasmodium falciparum, sample Cc1cc(N[C@@H](CC(C)C)C(=O)NCc2cccc(F)c2)nc(NCC2CCCCC2)n1.O=C(O)C(F)(F)F , Inhibition read: 70

The recorded Inhibition with Plasmodium falciparum for Oc1cc(-c2cccc(C(F)(F)F)c2)nc(Nc2ccc(Cl)c(Cl)c2)n1 was 97

Entry O=C(Nc1ccc(-c2cccc(-c3nc4cc(F)ccc4[nH]3)c2)cc1)Nc1ccsc1 , Plasmodium falciparum data, Inhibition value: 51

Observed Inhibition on Plasmodium falciparum, entry OC(CNCc1ccccc1OCc1ccccc1)c1cc(C(F)(F)F)cc(C(F)(F)F)c1 (stereo not drawn) , equals 99

Plasmodium falciparum Inhibition of CCn1nc(C(=O)NC2CCOc3ccccc32)c2ccccc2c1=O (stereo not drawn) is 59

Readout Inhibition for O=C(/C=C/c1ccc(Cl)c(Cl)c1)NCCCCCN1CCC(NC(=O)NC2CCCCCC2)CC1 , test system Plasmodium falciparum, was 41

# Inhibition measured on Plasmodium falciparum for item O=C(/C=C/c1ccc(Cl)c(Cl)c1)NCCCCCN1CCC(CCNC(=O)/C=C/c2cc(C(F)(F)F)ccc2F)CC1 = 46

Record CC(=O)N/N=C/[C@H](CCc1ccccc1)NC(=O)[C@H](CC(C)C)NC(=O)c1ccc(F)cc1 / Plasmodium falciparum, Inhibition recorded as 86

Tested on Plasmodium falciparum, the item CCN(CCN(C)C)Cc1ccc(-c2ccc(NS(=O)(=O)c3cccc(Cl)c3)cc2)cc1.O=C(O)C(F)(F)F showed Inhibition equal to 40

# lookup: COc1cccc(C(=O)NC(c2ccccc2OC)c2cc(Cl)c3cccnc3c2O)c1 (stereo not drawn) on Plasmodium falciparum, Inhibition = 36

====

System: Plasmodium falciparum
Protocol Text: GSK_TCMDC: Inhibition of Plasmodium falciparum 3D7 in whole red blood cells, using parasite LDH activity as an index of growth. Test compounds present at 2uM
Format: functional
Observation Type: Inhibition (%)
Report the value in % with no unit label.

Cc1sc(CNCCCNc2cc(=O)c3ccccc3[nH]2)cc1Br tested on Plasmodium falciparum gave Inhibition: 100

Here Br.CCSc1ccccc1CON1C(=N)N=C(N)NC1(C)C was tested on Plasmodium falciparum, and its Inhibition came to 96

Plasmodium falciparum data for CCOc1ccc2[nH]c(C)cc(=NN=Cc3cccc(C)n3)c2c1 ; its Inhibition: 99

Let me check: COc1ccccc1-c1sccc1C(=O)NC1(c2cc(Cl)cc(Cl)c2)CCCC1 , system Plasmodium falciparum, measured Inhibition is 88

Inhibition for Plasmodium falciparum with input Nc1ccc2nc(C=Cc3ccccc3)[nH]c2c1 equals 92

The value of Inhibition recorded for O=C1C(C2CCC(c3ccc(Cl)cc3)CC2)=C2OCC3COC2(O3)c2ccccc21 (stereo unspecified) when tested on Plasmodium falciparum reads 98

====

Test system: HepG2
Protocol Text: GSK_TCMDC: Percent inhibition of human HepG2 cell line. Test compounds present at 10uM.
Type: functional
Observation Type: Inhibition (%)
Your answer should be a plain number; it is taken to be in %.

Query CC(C)NCc1ccc(-c2ccc(NC(=O)c3ccc(Cl)cc3)cc2)cc1.O=C(O)C(F)(F)F on HepG2; Inhibition returned: 60

Measured on HepG2, COc1ccc2nccc(NCC3(O)CCC(NCc4cc5c(cn4)OCCO5)CC3)c2n1.Cl (stereo not given) has a documented Inhibition of 15

Simply: CCCCN1C(=O)C2CC(=O)CC(C3CCCCC3)C2C1=O (stereo not given) , HepG2, Inhibition = 0

Note to self: Inhibition of COc1cc(OC)cc(C(=O)Nc2nc(-c3ccccn3)cs2)c1 with HepG2 was 47

Fill in: HepG2 Inhibition for Cc1cc(N2CCCC2)nc(Nc2ccc(NC(=O)c3ccccc3C)cc2)n1 = 22

Inhibition value, target or system HepG2, for O=C(NCc1ccccc1)c1ncn(CCCN2CCC(N3CCCC3)CC2)c1-c1ccc(Cl)c(Cl)c1.O=CO : 8

Reported Inhibition (HepG2) for entry O=S(=O)(Nc1cccc(CCN2CCC(N3CCCCC3)CC2)c1)c1ccc2c(c1)OCCO2 is 8

Fill in: HepG2 Inhibition for Nc1nc(N)c2cc(S(=O)(=O)c3ccc4ccccc4c3)ccc2n1 = 14

Field Inhibition (system: HepG2) for entry COc1ccc(-c2ccccc2CNc2nc(NCCc3ccc(O)cc3)nc(N3CCNCC3)n2)cc1.O=C(O)C(F)(F)F = 48

Tested on HepG2, the item COc1ccc2nccc([C@@H](O)CN3CCC(NCc4nc5ccc(F)cc5[nH]4)CC3)c2c1.O=C(O)C(=O)O showed Inhibition equal to 20

With HepG2 as the test system, COc1cc(-c2cc(-c3ccc(OCCN(C)C)cc3)[nH]c2-c2ccncc2)ccc1Cl.Cl showed Inhibition of 28

Inhibition of Cc1nc(NCCc2c[nH]cn2)cc(NCc2ccccc2)n1 , assay on HepG2, is 5

Record for CN(C)c1ccc(C(c2ccc(N(C)C)cc2)c2cc([N+](=O)[O-])ccc2Cl)cc1 under target or system HepG2: Inhibition reported as 0

Entry CC(C)CNCc1cccc(-c2cccc(CN(CCCN3CCN(C)CC3)C(=O)/C=C/c3ccccc3)c2)c1.O=C(O)C(F)(F)F ; assay system HepG2; Inhibition recorded at 44

Here COc1cc(Cc2cnc(N)nc2N)cc(OC(C)C)c1OC was tested on HepG2, and its Inhibition came to 10

// returns Inhibition for Cl.N=C(N)NCCCN(Cc1ccccc1)c1ccccc1 with HepG2; value = 0

Result for CCOC(=O)c1sc(C(C)Nc2ccccc2)nc1-c1ccccc1 (stereo not given) , tested on HepG2, Inhibition: 0

Bench note, HepG2: entry COc1cc(NC(=O)c2sc(-c3ccc(Cl)cc3)cc2NC(=O)c2cccc(N(C)C)c2)ccc1OCCN1CCCC1 , its Inhibition = 49

Record for COc1cc(Nc2ncc3c(C)nc(-c4cc5ccccc5[nH]4)n3n2)cc(OC)c1OC under target or system HepG2: Inhibition reported as 19

Record O=C(C=Cc1ccc(Cl)c(Cl)c1)NCCCCCN1CCC(CCNC(=O)c2sc3ccccc3c2Cl)CC1 / HepG2, Inhibition recorded as 27

====

Give Inhibition for every item shown.
Tested on: Plasmodium falciparum
Protocol Text: GSK_TCMDC: Inhibition of Plasmodium falciparum 3D7 in whole red blood cells, using parasite LDH activity as an index of growth. Test compounds present at 2uM
Type: functional
Note: unit % is implicit; provide only the numeric part.

For this molecule ( O=C(NCCN1CCCCC1)c1cccc(Nc2nccc(Nc3ccc(Oc4ccccc4)cc3)n2)c1 ), measured Inhibition is 99

Lookup result for CC(C)(C)c1ccc(NC(=O)c2cccc(CN3CCCN(Cc4cccc(C#N)c4)CC3)c2)cc1.O=C(O)C(F)(F)F ; measured Inhibition: 97

Looking up CN(C)CCCN(C)C(=O)c1cc2cc(-c3ccccc3)ccc2n1S(=O)(=O)c1ccccc1.Cl , I found its Inhibition recorded as 98

Summary for this molecule, COc1ccc(NC(=O)C2c3ccccc3C(=O)N(C3CCCC3)C2c2cccs2)cc1 (stereo not drawn) : Inhibition is 93

// sample CC(C)C[C@H](NC(=O)c1cc2ccccc2s1)C(=O)N[C@H]1CCN(Cc2ccc(OC3CCN(C)C3)c(Cl)c2)C1.O=C(O)C(F)(F)F (stereo partly drawn) , its Inhibition was 97

For Cc1cc(Nc2cccc(C(F)(F)F)c2)nc(Nc2cccc(C(F)(F)F)c2)n1 the molecule record lists Inhibition as 100

# Inhibition (molecule: O=C(Nc1cccc(OC2CCN(Cc3ccc(F)cc3)CC2)c1)c1ccc(C(F)(F)F)cc1.O=C(O)C(F)(F)F ) is 94

Entry O=C(NCCCCN1CCC(c2ccc3c(c2OCCO)CCCC3)CC1)c1sc(-c2ccc(C(F)(F)F)cc2)nc1CO , Inhibition reported as 95
